System: S. cerevisiae growth, flow cytometry event count, 7 d
method.summary: yeast growth inhibition by event count, dose response, cytotoxicity control for yeast caloric restriction mimetic project, powder samples (AID 504926)
stated.conditions: at 100 µM; active compounds read high
Answer FALSE if event count decrease is under 20%, and TRUE if it is 20% or more.

1) O=C(Nc1ccc2nccnc2c1)c1cccc2nccnc12 = TRUE
2) C[n+]1c2ccccc2nc2ccc(NCCO)cc21 = TRUE
3) Cn1c(O)c(C(=Nc2ccc(F)cc2)c2ccccc2Cl)c(=O)n(C)c1=O = FALSE
4) COc1ccc2c(c1)c1nnc(SC)nc1n2C = FALSE
5) OCC[n+]1c2ccccc2nc2ccc(N3CCOCC3)cc21 = FALSE
6) O=C(Nc1ccccc1)c1ccc2nccnc2c1 = FALSE

###

Test system: S. cerevisiae growth, flow cytometry event count, 7 d
method.summary: yeast growth inhibition by event count, dose response, cytotoxicity control for yeast caloric restriction mimetic project, powder samples (AID 504926)
stated.conditions: at 100 µM; active compounds read high
Active and inactive are the calls of the source.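 Rule for the calls: active = compounds cutting yeast counts by over 60% at top dose, with positive span-based score; inactive = the rest.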
Let's look at some compounds and their measured event count decrease.
property.label: event count decrease

1. C=CCOn1c(=O)c(-c2cccs2)[n+]([O-])c2ccccc21 = -43% (inactive)
2. COc1cccc2nc3cc(C)c(C)cc3nc12 = 56% (inactive)
3. Oc1cccc2nc3ccccc3nc12 = 69%
4. O=C(CN1CCN(c2ccccn2)CC1)Nc1ccccc1F = -51% (inactive)
5. O=C(c1cccc2nc3ccccc3nc12)N1CCOCC1 = -106% (inactive)
6. Cc1cc(C)cc(NC(=O)CN2CCN(c3ccccn3)CC2)c1 = 2% (inactive)
7. O=C1c2c(O)ccc(O)c2C(=O)c2c(NCCNCCO)ccc(NCCNCCO)c21 = -180% (inactive)
8. CC(C)CSc1nnc2c3ccccc3n(C)c2n1 = -5% (inactive)
9. COc1ccc2nc3ccccc3[n+]([O-])c2c1 = 41% (inactive)
10. Cn1c(=O)[nH]c2nncnc2c1=O = 24% (inactive)
11. O=C(c1cccc2nccnc12)N1CCN(c2ccccc2F)CC1 = 55% (inactive)
12. CCN(CC)C(=O)CSc1nnc(-c2cccc(OC)c2)o1 = -66% (inactive)
13. C=CCSc1ccc(-c2ccc([N+](=O)[O-])cc2)o1 = 40% (inactive)
14. c1ccc2nc3ccccc3nc2c1 = 41% (inactive)
15. COc1ccc2nc3ccccc3nc2c1 = 35% (inactive)
16. c1ccc2[nH]c3cc4ncnc4cc3nc2c1 = -129% (inactive)
17. Cc1cc(C)c2[nH]c3nc(SCC(=O)O)nnc3c2c1 = 16% (inactive)
18. O=C(O)c1cnc2ccccc2n1 = 7% (inactive)
19. N#CCc1nn(-c2ccccc2)c2ncnc(N)c12 = 31% (inactive)
20. O=C(Nc1cccc(Cl)c1)Nc1ccc2nccnc2c1 = -73% (inactive)
21. CCN(CC)C(=O)c1ccc2nc3ccccc3nc2c1 = -99% (inactive)
22. FC(F)(F)c1nc2cc3nc4ccccc4[nH]c3cc2n1 = -72% (inactive)
23. COc1ccc2nc3ccccc3nc2c1NC(=O)c1ccccc1Cl = 43% (inactive)
24. Cc1ccc(-c2nn(C(C)(C)C)c3ncnc(N)c23)cc1 = -42% (inactive)
25. O=C(NCc1ccccc1)c1ccc2nccnc2c1 = 80% (inactive)
26. O=C(O)c1ccc2nccnc2c1 = 47% (inactive)
27. O=C(Nc1ccc2nccnc2c1)N1CCN(c2ccccc2)CC1 = -25% (inactive)
